System: Streptococcus pneumoniae
Test: Antibacterial activity against wild type Streptococcus pneumoniae ATCC 49619 assessed as growth inhibition by broth microdilution method
Type: functional
Overview of reported MIC across a group of molecules:

Smiles Entry | Readout Qualifier | MIC / µg/mL
COc1ccc2ncc(F)c([C@@H](O)[C@H](O)[C@@H]3CC[C@@H](NCc4cc5c(cn4)OCCS5)CO3)c2n1 | ≤ | 0.015
COc1ccc2nccc([C@H](O)[C@@H](O)[C@H]3CC[C@H](NCc4ccc5c(n4)NC(=O)CS5)CO3)c2n1 | = | 0.03
COc1ccc2nccc(/C=C/[C@@H]3CC[C@@H](NCc4cc5c(cn4)OCCO5)CO3)c2n1 | = | 1
COc1ccc2nccc(CC[C@@H]3CC[C@@H](NCc4ccc5c(n4)NC(=O)CS5)CO3)c2n1 | = | 0.06
COc1cnc2ccc(F)c([C@@H](O)[C@H](O)[C@@H]3CC[C@@H](NCc4ccc5c(n4)NC(=O)CS5)CO3)c2n1 | = | 0.5
